Data origin: the NIST ThermoML archive (doi:10.1021/je500050p)

# protocol-description: activity coefficient (dimensionless); of the first substance listed, at infinite dilution; xn = mol fraction of the nth substance listed
# particulars: 373.15 K; 101 kPa; Liquid; Chromatography; x1 = 0
Listed molecules paired with reported activity coefficient
attribute-measured: activity coefficient

molecule="Cc1ccccc1C [1,2-dimethylbenzene] + CCCCCCCCCCCCCC[N+](CCCCCC)(CCCCCC)CCCCCC.C[C@H](O)C(=O)[O-]" attribute_measured="activity coefficient" recorded_value=0.58
molecule="CC(C)OC(C)C [diisopropyl ether] + CCCCCCCCCCCCCC[N+](CCCCCC)(CCCCCC)CCCCCC.C[C@H](O)C(=O)[O-]" attribute_measured="activity coefficient" recorded_value=1.06
molecule="C1CCCCC1 [cyclohexane] + CCCCCCCCCCCCCC[N+](CCCCCC)(CCCCCC)CCCCCC.C[C@H](O)C(=O)[O-]" attribute_measured="activity coefficient" recorded_value=0.71
molecule="Cc1ccc(C)cc1 [1,4-dimethylbenzene] + CCCCCCCCCCCCCC[N+](CCCCCC)(CCCCCC)CCCCCC.C[C@H](O)C(=O)[O-]" attribute_measured="activity coefficient" recorded_value=0.58
molecule="CC1CCCC1 [methylcyclopentane] + CCCCCCCCCCCCCC[N+](CCCCCC)(CCCCCC)CCCCCC.C[C@H](O)C(=O)[O-]" attribute_measured="activity coefficient" recorded_value=0.77
molecule="CCc1ccccc1 [ethylbenzene] + CCCCCCCCCCCCCC[N+](CCCCCC)(CCCCCC)CCCCCC.C[C@H](O)C(=O)[O-]" attribute_measured="activity coefficient" recorded_value=0.57
molecule="CCCCCCC [heptane] + CCCCCCCCCCCCCC[N+](CCCCCC)(CCCCCC)CCCCCC.C[C@H](O)C(=O)[O-]" attribute_measured="activity coefficient" recorded_value=1.16
molecule="c1ccncc1 [pyridine] + CCCCCCCCCCCCCC[N+](CCCCCC)(CCCCCC)CCCCCC.C[C@H](O)C(=O)[O-]" attribute_measured="activity coefficient" recorded_value=0.34
